# EXPERIMENTAL TARGET: T1, human CD22 protein (recombinant CD22 extracellular domain) (human, UniProt P20273 20-687)
# T1 construct: extracellular domain; also called SIGLEC-2
# T1 sequence (looked up): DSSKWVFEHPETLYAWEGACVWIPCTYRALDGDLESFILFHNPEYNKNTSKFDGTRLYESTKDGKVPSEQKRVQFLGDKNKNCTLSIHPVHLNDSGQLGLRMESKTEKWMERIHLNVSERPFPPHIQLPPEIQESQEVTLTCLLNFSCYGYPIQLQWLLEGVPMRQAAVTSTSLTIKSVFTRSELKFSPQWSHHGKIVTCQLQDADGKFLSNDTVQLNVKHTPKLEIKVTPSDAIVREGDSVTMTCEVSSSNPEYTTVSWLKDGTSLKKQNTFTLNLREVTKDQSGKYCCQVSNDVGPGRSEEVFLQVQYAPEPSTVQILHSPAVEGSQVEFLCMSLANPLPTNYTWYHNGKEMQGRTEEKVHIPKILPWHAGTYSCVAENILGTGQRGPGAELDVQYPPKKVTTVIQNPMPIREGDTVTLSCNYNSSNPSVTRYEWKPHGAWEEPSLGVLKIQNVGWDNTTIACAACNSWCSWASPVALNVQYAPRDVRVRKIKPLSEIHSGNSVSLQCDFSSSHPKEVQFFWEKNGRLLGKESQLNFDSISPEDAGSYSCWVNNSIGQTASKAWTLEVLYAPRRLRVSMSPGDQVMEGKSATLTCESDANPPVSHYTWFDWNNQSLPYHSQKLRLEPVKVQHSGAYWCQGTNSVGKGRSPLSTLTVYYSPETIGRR
# METHOD SUMMARY: ELISA on recombinant CD22 extracellular domain and/or cell binding
MEASURED ATTRIBUTE: binding result

BINDER	VALUE MEASURED
anti-CD22 heavy chain-only antibody with the VH of SEQ ID NO: 68 (antibody, V domains shown, Heavy chain-only antibody (UniAb), human IgG) VH: QLQLQESGPGLVKPSETLSLTCTVSGGSISSSSYYWGWIRQPPGKGLEWIGSIYYSGVTYYNPSLKNRVTISVDTSKNQFSLKLSSVTAADTAVYYCTREDSSNWRSRGQGTLVTVSS	binds
anti-CD22 heavy chain-only antibody with the VH of SEQ ID NO: 34 (antibody, V domains shown, Heavy chain-only antibody (UniAb), human IgG) VH: QLQLQESGPGLVKPSETLSLTCTVSGDSISSGDYYWGWIRQPPGKGLEWIGHIYYSGVTYYNPSLKNRVTISVDTSRNQFSLKLSSVTAADTAVYYCTREDSSNWRSRGQGTLVTVSS	binds
anti-CD22 heavy chain-only antibody with the VH of SEQ ID NO: 56 (antibody, V domains shown, Heavy chain-only antibody (UniAb), human IgG) VH: QLQLQESGPGLVKPSETLSLTCTVSGGSISSSSYYWGWIRQPPGKGLEWIGHIYYSGVTYYNPSLKNRVTISVDTSKNQFSLKLSSVTAADTAAYYCTRDDSSNWRSRGQGTLVTVSS	binds
anti-CD22 heavy chain-only antibody with the VH of SEQ ID NO: 44 (antibody, V domains shown, Heavy chain-only antibody (UniAb), human IgG) VH: QLQLQESGPGLVKPSETLSLTCTVSGGSISSGDYYWGWIRQPPGKGLEWIGHIYYSGATYYNPSLENRVTISVDTSKNQFSLKLSSVTAADTAVYYCTRDDSSNWRSRGQGTLVTVSS	binds
anti-CD22 heavy chain-only antibody with the VH of SEQ ID NO: 78 (antibody, V domains shown, Heavy chain-only antibody (UniAb), human IgG) VH: QLQLQESDPGLVKPSETLSLTCTVSGGSISSSSHYWGWIRQPPGKGLEWIGHIYYSGATYYNPSLKNRVTISVDTSRNQFSLNLSSVTAADTAVYYCTREDSSNWRSRGQGTLVTVSS	binds
anti-CD22 heavy chain-only antibody with the VH of SEQ ID NO: 37 (antibody, V domains shown, Heavy chain-only antibody (UniAb), human IgG) VH: QLQLQESGPGLVKPSETLSLTCTVSGDSISSGDYYWGWIRQPPGKGLEWIGHIYYSGVTYYNPSLKNRVTISVDTSKNQFSLKLSSVTAADTAVYYCTREDSSNWRSRGQGTLVTVSS	binds
anti-CD22 heavy chain-only antibody with the VH of SEQ ID NO: 84 (antibody, V domains shown, Heavy chain-only antibody (UniAb), human IgG) VH: QLQLQESGPGLVKPSETLSLTCTVSGGSINDNSHYWGWIRQPPGKGLEWIGHIYYSGATYYNPSLKNRVTISVDTSRNQFSLNLSSVTAADTAVYYCTREDSSSWRSRGQGTLVTVSS	binds
anti-CD22 heavy chain-only antibody with the VH of SEQ ID NO: 80 (antibody, V domains shown, Heavy chain-only antibody (UniAb), human IgG) VH: QLQLQESGPGLVKPSETLSLTCTVSGGSISSSSYYWGWIRQPPGKGLEWIGHIYYSGATYYNPSLKNRVTISVDTSRNQFSLNLSSVTAADTAVYYCTREDSSNWRSRGQGTLVTVSS	binds
